Examples of compounds with documented mMC1R percent of the NDP-MSH maximal positive control follow.
Target: mMC1R (Mus musculus)
Sequence (Q01727 whole entry): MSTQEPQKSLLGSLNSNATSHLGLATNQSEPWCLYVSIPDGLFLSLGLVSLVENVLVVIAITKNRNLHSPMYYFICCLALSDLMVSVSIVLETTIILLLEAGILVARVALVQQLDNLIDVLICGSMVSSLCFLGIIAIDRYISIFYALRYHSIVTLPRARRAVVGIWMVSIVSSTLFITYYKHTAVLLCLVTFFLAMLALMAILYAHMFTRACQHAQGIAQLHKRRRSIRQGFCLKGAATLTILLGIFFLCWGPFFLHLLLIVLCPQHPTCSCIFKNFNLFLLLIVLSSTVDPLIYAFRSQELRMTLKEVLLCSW
Experiment: AlphaScreen cAMP agonist assay at mMC1R
Settings: Table 2; @ 100 μM
Square brackets hold non-standard residues; d marks the D form. Peptide text beside a SMILES is read from it. Bip = N[C@@H](Cc1ccc(-c2ccccc2)cc1)C(=O)O; dPhe(4-I) = N[C@H](Cc1ccc(I)cc1)C(=O)O; 2Nal = N[C@@H](Cc1ccc2ccccc2c1)C(=O)O; d2Nal = N[C@H](Cc1ccc2ccccc2c1)C(=O)O; Bta = N[C@@H](Cc1csc2ccccc12)C(=O)O; Tic = O=C(O)[C@@H]1Cc2ccccc2CN1
Kindly format the answer as number then unit.

CC(=O)N[C@@H](Cc1ccccc1)C(=O)N[C@@H](CCCNC(=N)N)C(=O)N[C@H](Cc1ccc(I)cc1)C(=O)N[C@@H](Cc1ccc(-c2ccccc2)cc1)C(N)=O [SKY4-48-7, Ac-Phe-Arg-(pI)DPhe-Bip-NH2] (Ac-FR[dPhe(4-I)][Bip]-NH2) | 67% @ 100 μM
CC(=O)N[C@@H](Cc1ccc2ccccc2c1)C(=O)N[C@@H](CCCNC(=N)N)C(=O)N[C@H](Cc1ccc(I)cc1)C(=O)N[C@H](Cc1ccc2ccccc2c1)C(N)=O [SKY4-48-48, Ac-Nal(2′)-Arg-(pI)DPhe-DNal(2′)-NH2] (Ac-[2Nal]R[dPhe(4-I)][d2Nal]-NH2) | 53% @ 100 μM
CC(=O)N[C@@H](Cc1ccc(-c2ccccc2)cc1)C(=O)N[C@@H](CCCNC(=N)N)C(=O)N[C@H](Cc1ccc(I)cc1)C(=O)N[C@@H](Cc1ccc2ccccc2c1)C(N)=O [SKY4-48-36, Ac-Bip-Arg-(pI)DPhe-Nal(2′)-NH2] (Ac-[Bip]R[dPhe(4-I)][2Nal]-NH2) | 23% @ 100 μM
CC(=O)N1Cc2ccccc2C[C@H]1C(=O)N[C@@H](CCCNC(=N)N)C(=O)N[C@H](Cc1ccc(I)cc1)C(=O)N[C@@H](Cc1ccc2ccccc2c1)C(N)=O [SKY4-48-38, Ac-Tic-Arg-(pI)DPhe-Nal(2′)-NH2] (Ac-[Tic]R[dPhe(4-I)][2Nal]-NH2) | 66% @ 100 μM

Give the reported value of mMC1R percent of the NDP-MSH maximal positive control for this record: CC(=O)N1Cc2ccccc2C[C@H]1C(=O)N[C@@H](CCCNC(=N)N)C(=O)N[C@H](Cc1ccc(I)cc1)C(=O)N[C@@H](Cc1ccc(-c2ccccc2)cc1)C(N)=O [SKY5-146-1, Ac-Tic-Arg-(pI)DPhe-Bip-NH2] (Ac-[Tic]R[dPhe(4-I)][Bip]-NH2)
39% @ 100 μM

Give the reported value of mMC1R percent of the NDP-MSH maximal positive control for this record: CC(=O)N1Cc2ccccc2C[C@H]1C(=O)N[C@@H](CCCNC(=N)N)C(=O)N[C@H](Cc1ccc(I)cc1)C(=O)N[C@@H](Cc1csc2ccccc12)C(N)=O [SKY4-48-14, Ac-Tic-Arg-(pI)DPhe-3Bal-NH2] (Ac-[Tic]R[dPhe(4-I)][Bta]-NH2)
38% @ 100 μM

Give the reported value of mMC1R percent of the NDP-MSH maximal positive control for this record: CC(=O)N[C@@H](CCCNC(=N)N)C(=O)N[C@@H](CCCNC(=N)N)C(=O)N[C@H](Cc1ccc(I)cc1)C(=O)N[C@@H](Cc1ccc(-c2ccccc2)cc1)C(N)=O
44% @ 100 μM

These entries and their values trace back to patent US10899793B2.
